Entry source: patent US10570168B2

- Test system: CCRF-CEM (TdT positive CEM)
- assay explanation: ATP (ViaLight plus) cytotoxicity assay
- Format: cell-based, Human
- condition notes: Homo sapiens, CCRF-CEM, CEM, with AK (adenosine kinase inhibitor A-134974, 1 μM); read-out: IC50
test readout: pIC50
Hey, just a heads up that pIC50 is the negative log base 10 of the concentration in molar.

-- ask Which measured pIC50 belongs to Nc1ncnc2c1ncn2[C@@H]1O[C@H](CO)C[C@H]1O [Cordycepin, 3′-deoxyadenosine, reference compound] , tested on CCRF-CEM (TdT positive CEM)?
-- reply 4.53

###

Exercise: state measured Emax for each of the compounds provided.
- Test system: Z138
- assay explanation: Solid tumour and haematological malignancy assay (CellTiterGlo)
- Assay type: cell-based
- condition notes: Homo sapiens, Z-138, 72 h, read-out: MI %
Please reply with the bare figure in % and do not write the unit itself.

-- ask For the compound C[C@H](NP(=O)(OC[C@@H]1CC(O)[C@H](n2cnc3c(N)ncnc32)O1)Oc1ccccc1)C(=O)OCc1ccccc1 (stereo partly shown) , what Emax is on record?
-- reply 95

-- ask For the compound C[C@H](NP(=O)(OC[C@@H]1C[C@@H](O)[C@H](n2cnc3c(N)ncnc32)O1)Oc1cccc2ccccc12)C(=O)OCc1ccccc1 (stereo partly shown) , what Emax is on record?
-- reply 100

-- ask For the compound Nc1ncnc2c1ncn2[C@@H]1O[C@H](COP(=O)(NCC(=O)OCc2ccccc2)Oc2ccccc2)C[C@H]1O (stereo partly shown) , what Emax is on record?
-- reply 100

-- ask For the compound CC(NP(=O)(OC[C@@H]1C[C@@H](O)[C@H](n2cnc3c(N)nc(Cl)nc32)O1)Oc1cccc2ccccc12)C(=O)OCc1ccccc1 (stereo in doubt) , what Emax is on record?
-- reply 90.2
